As shown below, each of these compounds has a reported clearance value.
Test method notes: Pharmacokinetics in CD-1 mice, IV
Assay type: in vivo
Applied conditions: male, mouse, iv, Plasma, intravenously 5 mg/kg

Compound	Measurement name	Obs value
Cn1cc(-c2cccnc2Oc2ccc(F)cc2)c2cc[nH]c2c1=O [Compound 18A]	clearance	3.67 mL/min

Below: the item to evaluate.
The reported clearance of the compound Cn1ccc2c(-c3cccnc3Oc3ccc(F)cc3)c[nH]c2c1=O [Compound 18B] was 5.61 mL/min

---

Tested on: GRN mRNA
Test method notes: qPCR of GRN mRNA in human NPCs (enhancer screen and follow-up)
Type: cell-based
Applied conditions: human NPCs, 24 h, dose 10 µM, relative to DMSO
Measurement name: GRN Fold-change (Norm. to GAPDH) ± Std. Error
The answer should be a number; do not append a unit.

The reported GRN Fold-change (Norm. to GAPDH) ± Std. Error of the molecule O=C(CCCCCCNC(=O)c1cnc(N(c2ccccc2)c2ccccc2)nc1)NO [ACY-1215] was 3.63
